# Assayed system: Bromodomain-containing protein 4 (Homo sapiens)
# Assay text: Binding affinity to human partial length BRD4 (BD1) (N44 to E168 residues) expressed in bacterial expression system by BROMOscan assay
Observation type: pKd
pKd here: minus log base 10 of the concentration, concentration in moles per litre.

Task: Specify pKd for Cc1noc(C)c1-c1ccc2nc(-c3cnn(CC(C)(C)O)c3)nc(N3CCOC[C@@H]3c3ccccc3)c2c1 and stop.
Result: 7.77

====

# Assayed system: CYP3A4 (Homo sapiens, UniProt P08684)
# Sequence (P08684 whole entry): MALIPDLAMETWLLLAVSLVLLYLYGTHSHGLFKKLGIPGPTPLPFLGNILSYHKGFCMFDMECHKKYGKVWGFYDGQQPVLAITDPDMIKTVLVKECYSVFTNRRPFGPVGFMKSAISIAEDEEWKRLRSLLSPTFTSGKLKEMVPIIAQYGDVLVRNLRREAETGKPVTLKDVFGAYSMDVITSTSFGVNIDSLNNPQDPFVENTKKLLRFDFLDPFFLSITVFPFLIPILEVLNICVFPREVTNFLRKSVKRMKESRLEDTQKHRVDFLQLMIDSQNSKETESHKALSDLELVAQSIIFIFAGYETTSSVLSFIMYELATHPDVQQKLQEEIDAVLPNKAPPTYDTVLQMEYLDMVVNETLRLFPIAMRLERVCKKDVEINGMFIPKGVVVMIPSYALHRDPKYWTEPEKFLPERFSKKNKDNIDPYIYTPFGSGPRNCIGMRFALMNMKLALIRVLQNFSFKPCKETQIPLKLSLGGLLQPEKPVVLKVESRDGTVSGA
# Assay text: Inhibition of human CYP3A4 at 10 uM using midazolam as substrate relative to control
# Format: ADME
# Measurement context: probe midazolam
Observation type: inhibition at 10 µM

Task: Report measured inhibition at 10 µM on CYP3A4 (Homo sapiens, UniProt P08684); entry: Cc1noc(C)c1-c1ccc2nc(-c3cnn(CC(C)(C)O)c3)nc(N3CCOC[C@@H]3c3ccccc3)c2c1
Result: < 50%
